Reference source: ChEMBL document CHEMBL5724914

Details: human gut metagenome, 24 h, 2 µM; further: call rule not given here
ASSAY_READOUT: Bacterial Biotransformation

The following compounds have reported results that may help.
CCOC(=O)[C@H](CCc1ccccc1)N[C@@H](C)C(=O)N1CCC[C@H]1C(=O)O.O=C(O)/C=C\C(=O)O [ENALAPRIL MALEATE]
Compound NOT metabolized
C=C[C@H]1CN2CC[C@H]1C[C@H]2[C@H](O)c1ccnc2ccc(OC)cc12.C=C[C@H]1CN2CC[C@H]1C[C@H]2[C@H](O)c1ccnc2ccc(OC)cc12.O.O.O=S(=O)(O)O [QUININE SULFATE]
Compound metabolized
CC#C[C@]1(O)CC[C@H]2[C@@H]3CCC4=CC(=O)CCC4=C3[C@@H](c3ccc(N(C)C)cc3)C[C@@]21C
Compound metabolized
Cc1cc(C)cc(OCC2CNC(=O)O2)c1 (centres undefined)
Compound metabolized
COc1cc(C(=O)NCc2ccc(OCCN(C)C)cc2)cc(OC)c1OC [TRIMETHOBENZAMIDE]
Compound NOT metabolized

// for each compound below, give its Bacterial Biotransformation
1. Nc1nnc(-c2cccc(Cl)c2Cl)c(N)n1
2. CC(C)(C)NCC(O)c1cc(Cl)c(N)c(Cl)c1 (centres undefined)
3. C#C[C@]1(OC(C)=O)CC[C@H]2[C@@H]3CCC4=C[C@@H](OC(C)=O)CC[C@@H]4[C@H]3CC[C@@]21C [ETHYNODIOL DIACETATE]
4. CCOc1cc(CC(=O)N[C@@H](CC(C)C)c2ccccc2N2CCCCC2)ccc1C(=O)O [REPAGLINIDE]

// result
1: Compound metabolized; 2: Compound NOT metabolized; 3: Compound metabolized; 4: Compound metabolized

* * *

Assay: The drug is tested on WLS-310 corresponding to human gut metagenome with ENA study accession number: PRJEB37062 and ENA sample accession number: ERS12561785 for biotransformation under anaerobic condition. The drug concentrations were measured over 9 timepoints collected between 0 and 24 hours of incubation by liquid-chromatography-coupled mass spectrometry (LC–MS)
Details: 2 µM
ASSAY_READOUT: Bacterial Biotransformation

Sample answers from the record:
Clc1cccc(Cl)c1N=C1NCCN1
Compound metabolized
O=C(O)c1cc(/N=N/c2ccc(S(=O)(=O)Nc3ccccn3)cc2)ccc1O
Compound metabolized
Br.CN1CCC[C@@H]1Cc1c[nH]c2ccc(CCS(=O)(=O)c3ccccc3)cc12 [ELETRIPTAN HYDROBROMIDE]
Compound metabolized
COc1cc(C(=O)NCc2ccc(OCCN(C)C)cc2)cc(OC)c1OC [TRIMETHOBENZAMIDE]
Compound NOT metabolized

# per-item lookup of Bacterial Biotransformation; items listed below
1. CN1CCN(C2=Nc3ccccc3Oc3ccc(Cl)cc32)CC1.O=C(O)CCC(=O)O [LOXAPINE SUCCINATE]
2. CC(NC(C)(C)C)C(=O)c1cccc(Cl)c1 (centres undefined)
3. CC12CC3CC(C)(C1)CC(N)(C3)C2 [MEMANTINE]
4. CN1CCN2c3ccccc3Cc3ccccc3C2C1 (centres undefined)
5. OC(c1cc(C(F)(F)F)nc2c(C(F)(F)F)cccc12)C1CCCCN1 (centres undefined)
6. C=CC[C@@H]1/C=C(\C)C[C@H](C)C[C@H](OC)[C@H]2O[C@@](O)(C(=O)C(=O)N3CCCC[C@H]3C(=O)O[C@H](/C(C)=C/[C@@H]3CC[C@@H](O)[C@H](OC)C3)[C@H](C)[C@@H](O)CC1=O)[C@H](C)C[C@@H]2OC.O
7. COc1ccc2c(c1)c(CC(=O)O)c(C)n2C(=O)c1ccc(Cl)cc1
8. CCOC(=O)[C@H](CCc1ccccc1)N[C@@H](C)C(=O)N1Cc2ccccc2C[C@H]1C(=O)O

// result
1. Compound NOT metabolized
2. Compound NOT metabolized
3. Compound NOT metabolized
4. Compound NOT metabolized
5. Compound metabolized
6. Compound metabolized
7. Compound metabolized
8. Compound metabolized

Provide each entry's Bacterial Biotransformation from the list below.
1. CC(C)(C)N.CCC[C@H](N[C@@H](C)C(=O)N1[C@H](C(=O)O)C[C@@H]2CCCC[C@@H]21)C(=O)OCC
2. Nc1nc(NC2CC2)c2ncn([C@H]3C=C[C@@H](CO)C3)c2n1.Nc1nc(NC2CC2)c2ncn([C@H]3C=C[C@@H](CO)C3)c2n1.O=S(=O)(O)O [ABACAVIR SULFATE]

// result
1: Compound metabolized; 2: Compound NOT metabolized

* * *

Conditions: human gut metagenome, 24 h, 2 µM
ASSAY_READOUT: Bacterial Biotransformation

Below, 8 molecules whose answers are already recorded.
CCCN1C[C@H](CSC)C[C@@H]2c3cccc4[nH]cc(c34)C[C@H]21.CS(=O)(=O)O [PERGOLIDE MESYLATE]
Compound NOT metabolized
CCc1oc2ccccc2c1C(=O)c1cc(Br)c(O)c(Br)c1
Compound metabolized
COc1ccnc(C[S+]([O-])c2nc3ccc(OC(F)F)cc3[nH]2)c1OC (centres undefined)
Compound metabolized
CN1CCC(=C2c3ccccc3CC(=O)c3sccc32)CC1.O=C(O)/C=C/C(=O)O [KETOTIFEN FUMARATE]
Compound metabolized
CC[C@@]1(O)C(=O)OCc2c1cc1n(c2=O)Cc2cc3c(CN(C)C)c(O)ccc3nc2-1
Compound NOT metabolized
CCOC(=O)C1=C(C)NC(C)=C(C(=O)OC)C1c1cccc([N+](=O)[O-])c1 (centres undefined)
Compound metabolized
CC(C)(C)NCC(O)COc1cccc2c1CC(O)C(O)C2 (centres undefined)
Compound metabolized
CN(C)C(=O)Oc1cc(OC(=O)N(C)C)cc(C(O)CNC(C)(C)C)c1 (centres undefined)
Compound NOT metabolized

Noted for Nc1nc(NC2CC2)c2ncn([C@H]3C=C[C@@H](CO)C3)c2n1.Nc1nc(NC2CC2)c2ncn([C@H]3C=C[C@@H](CO)C3)c2n1.O=S(=O)(O)O [ABACAVIR SULFATE] : its Bacterial Biotransformation reads Compound metabolized

* * *

Assay: The drug is tested on WLS-052 corresponding to human gut metagenome with ENA study accession number: PRJEB37062 and ENA sample accession number: ERS12561747 for biotransformation under anaerobic condition. The drug concentrations were measured over 9 timepoints collected between 0 and 24 hours of incubation by liquid-chromatography-coupled mass spectrometry (LC–MS)
Settings: 2 µM
ASSAY_READOUT: Bacterial Biotransformation

Below, each entry is followed by its recorded Bacterial Biotransformation result.
CC[C@@]1(O)C(=O)OCc2c1cc1n(c2=O)Cc2cc3c(CN(C)C)c(O)ccc3nc2-1
Compound NOT metabolized
OC(c1cc(C(F)(F)F)nc2c(C(F)(F)F)cccc12)C1CCCCN1 (centres undefined)
Compound metabolized
C=C[C@H]1CN2CC[C@H]1C[C@H]2[C@H](O)c1ccnc2ccc(OC)cc12.C=C[C@H]1CN2CC[C@H]1C[C@H]2[C@H](O)c1ccnc2ccc(OC)cc12.O.O.O=S(=O)(O)O [QUININE SULFATE]
Compound NOT metabolized
CC(C)c1nc(N(C)S(C)(=O)=O)nc(-c2ccc(F)cc2)c1/C=C/[C@@H](O)C[C@@H](O)CC(=O)[O-].CC(C)c1nc(N(C)S(C)(=O)=O)nc(-c2ccc(F)cc2)c1/C=C/[C@@H](O)C[C@@H](O)CC(=O)[O-].[Ca+2]
Compound metabolized
COc1cc2nc(N3CCN(C(=O)C4CCCO4)CC3)nc(N)c2cc1OC (centres undefined)
Compound NOT metabolized

Please give Bacterial Biotransformation, item by item, for the list that follows.
1. Br.CN1CCC[C@@H]1Cc1c[nH]c2ccc(CCS(=O)(=O)c3ccccc3)cc12 [ELETRIPTAN HYDROBROMIDE]
2. O=C(O)CCC(=O)O.O=C(O[C@H]1CN2CCC1CC2)N1CCc2ccccc2[C@@H]1c1ccccc1 [SOLIFENACIN SUCCINATE]
3. CCOc1ccc2nc(S(N)(=O)=O)sc2c1 [ETHOXZOLAMIDE]
4. Br.COc1ccc2c(c1)[C@]13CCCC[C@@H]1[C@H](C2)N(C)CC3.O [DEXTROMETHORPHAN HYDROBROMIDE]

// result
1. Compound NOT metabolized
2. Compound NOT metabolized
3. Compound NOT metabolized
4. Compound NOT metabolized

* * *

Assay: The drug is tested on WLS-006 corresponding to human gut metagenome with ENA study accession number: PRJEB37062 and ENA sample accession number: ERS12561741 for biotransformation under anaerobic condition. The drug concentrations were measured over 9 timepoints collected between 0 and 24 hours of incubation by liquid-chromatography-coupled mass spectrometry (LC–MS)
Details: 2 µM
ASSAY_READOUT: Bacterial Biotransformation

Solved entries (count: 5):
Br.COc1ccc2c(c1)[C@]13CCCC[C@@H]1[C@H](C2)N(C)CC3.O [DEXTROMETHORPHAN HYDROBROMIDE]
Compound metabolized
C[N+]12CCC(CC1)C(OC(=O)C(O)(c1ccccc1)c1ccccc1)C2.[Br-] (stereo unspecified) [CLIDINIUM BROMIDE]
Compound NOT metabolized
C=CC[C@@H]1/C=C(\C)C[C@H](C)C[C@H](OC)[C@H]2O[C@@](O)(C(=O)C(=O)N3CCCC[C@H]3C(=O)O[C@H](/C(C)=C/[C@@H]3CC[C@@H](O)[C@H](OC)C3)[C@H](C)[C@@H](O)CC1=O)[C@H](C)C[C@@H]2OC.O
Compound metabolized
CSc1ccc2c(c1)C(N1CCN(C)CC1)Cc1ccccc1S2.O=C(O)/C=C\C(=O)O (stereo unspecified)
Compound NOT metabolized
O=C1N=C([O-])NC1(c1ccccc1)c1ccccc1.[Na+] [PHENYTOIN SODIUM]
Compound metabolized

As a next step, examine the compound that follows.
Input CN(C)C(=O)Oc1cc(OC(=O)N(C)C)cc(C(O)CNC(C)(C)C)c1 (stereo unspecified) . Output Bacterial Biotransformation: Compound metabolized
